Ref: the supplement of paper PMC9170038

- Tested on: K4 kissing-loop RNA reporter;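 note: bound reporter read as fluorescence of individual clusters on recovered sequencing chips by microscopy, with normalized cluster intensities fitted with a binding model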
- measurement protocol: apparent KD of K4 kissing-loop reporter; higher = weaker reporter binding
- experimental conditions: Eterna round: R107; input ligand: theophylline 20 uM
Returns 1 if the recorded apparent KD of K4 kissing-loop reporter is greater than or equal to 0.5 µM, and -1 otherwise.

Answered examples (4):
chain sequence | category
AGAGUUAUAUGAGGAUAUGAGAUAGUUAAUGAGUGAGUUAUAGUGUAGUUUGGUUAGUGAUGUUAUUUAGAAGGCGUGAGUGAUG [reefmullin] | -1
AAAAUUGCGGUUUUAAGAUCUUUUUGCUUACGAGGACCGGUACGGCCGCCACUCGAGUCAAGUGAUGUUUGAUUUUCUAUUAUUA [JR_ExcTryptoA_Sub015] | -1
GGCGAUGAGUGAUGUUCAAAGAAUAAUGAUACCAGCUGAUGUCGAAGCCCUUGGCAGCAUAGAUACACCAAGUGAUGGUAAUGCC [Default title] | -1
AGAAGAUAUCGUGAUACCAGACCGCGGAGAGGCCGGAAGAGGGUAGUGAUGUUGCAUGCAGUCCCUUGGCAGCACUGACAGUAUU [theeternabot_sameState_KL_Theo_B_40] | 1

Now consider the entry below.
Inquiry: Quick check, apparent KD of K4 kissing-loop reporter >= 0.5 µM? UAUACUAGACAAGAGAGAAUUCUCUCAAGAGAGGAUAUCCGAAUUCGGAGAAGGCUCUCUCAGUGAUGUUGGGUAUAGUCUAGAA [AK7 SS FMN A]
Reply text: -1

----------
- Test system: MS2 coat protein
- measurement protocol: apparent KD of MS2 coat protein; designed switch direction (-1 OFF switch, 1 ON switch): -1; higher = weaker reporter binding
- experimental conditions: input ligand: none
endpoint: apparent KD of MS2 coat protein (nM)
Just the number in nM, nothing appended.

Recorded apparent KD of MS2 coat protein, per entry:
chain sequence | unit descriptor | endpoint result
CGUUCGCGAGGAUAUGCAUUCGAGUCCACUACGUGUCUGGGACUUGAGGAUCACCCAAGUAGAAGGCGCCUCAC [salish99_ex2_r4_648] (Eterna round: R97, puzzle: Exclusion 2) | nM | 135
AAGAAAGAGUUAGGAUAUACAUGAGGAUCACCCAUGUGGUGGUAAAUCCGCUGGGUCGGUUCGAUGUAGAAGGAACAACCGCCG [Inisinlaon] (Eterna round: R96, puzzle: Exclusion NG 2) | nM | 68.3
AUAUUGUGAGGAUAUGAACUUAGUAUCGAAAGAUACUUAGUUCAGAAGGCACAUGAGGAUCACCCAUGUUUCUC [Long static hairpin v17] (Eterna round: R97, puzzle: Exclusion 4) | nM | 69.8
UCCUUGUUAGGAUAUUGCCUGUGGGCUAAUCUGAAUACAGGUAAGAAGGGACAUGAGGAUCACCCAUGUGACAA [Eternabot (Original) Solution 32] (Eterna round: R97, puzzle: Exclusion 4) | nM | 28.8
ACAAGCUUUUAGAUUUUCAACAUGAGGAUCACCCAUGUUCGUCUUGUGCUCGGGCUUGGGCGGUGUCCGGGUUUGGG [JL TOV1 3.77 sellena mod] (Eterna round: R97, puzzle: Sensor, turn-off variant 1) | nM | 34.7
GCAGCAUAGAUAACAUACUGUUACAUGAGGAUCACCCAUGUACAGGAUAUGGUCUGGAUUACAGGCCAGAAGGGUACAAGCUGC [Eli exng3 - 021] (Eterna round: R96, puzzle: Exclusion NG 3) | nM | 12.1
AUGAGGUUAGGAUAUACAUGAGGAUCACCCAUGUUGGAGAAGGAAAUGUAAGUAGCGAGUAGAAGGAACGGAGC [JR_Exclu3_Sub059] (Eterna round: R96, puzzle: Exclusion 3) | nM | 49
AUAUUGUGAGGAUAUGAACUUAGUAUCGAAAGAUAGUAAGUUCAGAAGGCACAUGAGGAUCACCCAUGUUUCUC [Long static hairpin v8] (Eterna round: R97, puzzle: Exclusion 4) | nM | 69.8

Inquiry: Request the reported apparent KD of MS2 coat protein associated with UGCAGACGAGGAUAUAGAUUUAGAUACAUGAGGAUCACCCAUGUAUACAUGUAUUUAGAUUUAGAAGGCGUCUGCU [E5/14-A3] (Eterna round: R97, puzzle: Exclusion 5)
Reply text: 2220

Inquiry: Any idea what its apparent KD of MS2 coat protein is? The sequence is CCACGACAUGAGGAUCACCCAUGUGAGGAUAUGACCUGAAAAGCGUGAGCAGUUUGUAUCAGAAGGCGCGUGGG [salish99_ex1_r4_066] (Eterna round: R97, puzzle: Exclusion 1)
Reply text: 67.4

Inquiry: Item GGGCUGUCAGGAUAUCCCGGGCCCGGGUAAACCCGGGUUUGGGAGAAGGGACAUGAGGAUCACCCAUGUGGCCC [-39.8, -38.8 kcal, A 20%, 5cbis-0] (Eterna round: R97, puzzle: Exclusion 4) has what recorded apparent KD of MS2 coat protein?
Reply text: 34.1

Inquiry: Looking for the measured apparent KD of MS2 coat protein of GGUCCGAGUGUGAGGAUAUGCUGGUCCUUGGAUCAGCAGAAGGCACAUGAGGAUCACCCAUGUGGUGUCGGACC [Mat - Exclusion 4 - Eli Mod - D32] (Eterna round: R97, puzzle: Brourd's mod of Exclusion 4) , can you help?
Reply text: 932

Inquiry: Item AGCUAGUCAGGAUAUUCUAUUAAUUACAUGAGGAUCACCCAUGUGAAUGGACAAGGGUGUGAAGAAGGGACUAGCG [Omei Ex5 A13] (Eterna round: R97, puzzle: Exclusion 5) has what recorded apparent KD of MS2 coat protein?
Reply text: 2080

Inquiry: Fill in: apparent KD of MS2 coat protein of AAACAAGCGUGAGGCUCGUCUUAAAAAGCUUCAUGAAAAACAUGAGGAUCACCCAUGUAAAAUGAUCGAAAGAUCAA [JL turnoff v2 28] (Eterna round: R96, puzzle: Sensor v2, turn-off variant 2) is ___
Reply text: 18.2

Inquiry: Consider the sequence CGUCUGUAAGGAUAUGGUAGCAUCAACAUGAGGAUCACCCAUGUUACAUGGGACUAGUGAUUAGAAGGUACGAACG [EX5 #56] (Eterna round: R97, puzzle: Exclusion 5) and give its measured apparent KD of MS2 coat protein.
Reply text: 80.6

Inquiry: // apparent KD of MS2 coat protein lookup, key: CAACGAUGAGGAUAUACAUGAGGAUCACCCAUGUGGUCCAGCAGCCAUUACGGCGAAGGUAGAAGGCGUUAUUA [Eternabot (L2) Solution 54] (Eterna round: R97, puzzle: Exclusion 3)
Reply text: 386

Inquiry: Please look up its apparent KD of MS2 coat protein: GGUUAUUCUGUAUGGGUACACAUGAGGAUCACCCAUGUACAGAGGUCUACCCUAAUAUAGCAAGCUGGCCCGUCCUA [Eternabot (L1) Solution 24] (Eterna round: R97, puzzle: Sensor, turn-off variant 1)
Reply text: 132

Inquiry: Which apparent KD of MS2 coat protein is listed for UGAUCUACUGAGGAUAUUAUAUCACCCGACUGAUAAGAAGGCAGUACAUGAGGAUCACCCAUGUGGGUAGCCAU [Polaris9] (Eterna round: R97, puzzle: Exclusion 6) ?
Reply text: 34.7

----------
- Tested on: MS2 coat protein
- measurement protocol: apparent KD of MS2 coat protein; designed switch direction (-1 OFF switch, 1 ON switch): 1; higher = weaker reporter binding
- experimental conditions: input ligand: none
endpoint: apparent KD of MS2 coat protein (nM)
Give the number; nM is assumed, so skip it.

// below: answered sequences
chain sequence | apparent KD of MS2 coat protein / nM
GGUGCAAUAAACGCCUACAUGAGGAUCACCCAUGUAUGUAGGCAGGAUAUCGUAUGCAAAGCAUACGAGAAGGGCUAUAGUACC [Mat - Same State NG 3 - JL Mod - D45] (Eterna round: R96, puzzle: Same State NG 3) | 146
GGAUGAUUGACAGGAUAUCAUUUGUAAAUUCGAUGAGAAGGGUCGAUUACUUACACGACGUGUUACAUGAGGAUCACCCAUGUU [SameState NG1 #5] (Eterna round: R96, puzzle: Same State NG 1) | 148
AUUAUUAAUGCAGGAUAUGAUUAACAUGAGGAUCACCCAUGUGGUGUUGUGAGUAAGGAGAGUGAUCAGAAGGGCAUUUUUUAU [JMF's solution 15] (Eterna round: R96, puzzle: Same State NG 2) | 1190

Now turn to the next sequence.
Inquiry: Quick check: apparent KD of MS2 coat protein of UGGCUCAGACGAGGAUAUAUGUCUCGAGCUUCGGCUCGAGACAUGAGGAUCACCCAUGUAAUAACAUAGAAGGUGUCUGAGCCU [SSNG2/1-C3] (Eterna round: R96, puzzle: Same State NG 2) ?
Reply text: 388

----------
apparent KD of MS2 coat protein reference
- Tested on: MS2 coat protein
- measurement protocol: apparent KD of MS2 coat protein; higher = weaker reporter binding
- experimental conditions: Eterna round: R107; input ligand: arginine 13.2 mM
Please respond with the number in nM and leave the unit unwritten.

Field: example entries. Status: answers known.
chain sequence | assayed target | apparent KD of MS2 coat protein / nM
UUAAAGGCACCUCAUGGGACUAUAAACCCGCGAGGACCGGUACGGCCGCCACUCGAAUAUCAACAUGAGGAUCACCCAUGUGGUU [theeternabot_exclusion_MS2_Trp_A_6] | MS2 coat protein | 16.2
AUAAGUAAUGUCUCGUGUAUUAUUACAGAUACCAGACUAUCCUAUGUCCCUUGGCAGCUGGAUUACAUGAGGAUCACCCAUGUUG [#10 Exclusion-TheophyllineA] | MS2 coat protein | 21.5

Inquiry: Which apparent KD of MS2 coat protein value belongs to ACAUGAGGAUCACCCAUGUAUGACUAUCCUCGAGGACCGGUACGGCCGCCACUCGAACGAGUGGCUCGCGAGUGCGCACUUGCGA [5' end] ?
Reply text: 16.7

Inquiry: Requested read-out: apparent KD of MS2 coat protein. Entry: CAGUGAGAACGAAGGAGCGCUGAAUGAUGUGGACAUGAGGAUCACCCAUGUUAAGUCCAAUGGCAGGUAGGUCGCGUAACACUAG [Same State - Arginine B]
Reply text: 14.1

Inquiry: Need apparent KD of MS2 coat protein, item UGUUUGGUGCGCGAGUGUUGGAUAAUUGAUACCAGUGUAGAUGUACGCCCUUGGCAGCGAAUCCGAACAUGAGGAUCACCCAUGU [5.aA]
Reply text: 36.7

Inquiry: apparent KD of MS2 coat protein for ACAUCCAGGUUAAUCGUGGGCAUACUCGAUACCAGUAUUUUAAUCUACCCUUGGCAGCGACAUGAGGAUCACCCAUGUGCGAUGA [XTheo A #12] ?
Reply text: 11.7
